- Tested on: CCD-112CoN normal human colon cells
- Experiment Summary: Cytotoxicity against CCD-112CoN cells
- Assay Setup: read-out: IC50 values toward the CCD-112 CoN cells; Table 6
Reported IC50 is given for each of the following compounds.

Using the record for COc1cc2c(O[C@@H]3OC[C@H](OC(C)=O)[C@H](OC(C)=O)[C@H]3O)c3c(c(-c4ccc5c(c4)OCO5)c2cc1OC)C(=O)OC3 , report its IC50.
> 100 µM

Now, please, on to the next compound.
Sample COc1cc2c(OC3OCC(O)C(O)C3O)c3c(c(-c4ccc5c(c4)OCO5)c2cc1OC)C(=O)OC3 (centres unmarked) — what was its IC50?
> 100 µM

====

- Tested on: HT-29 human colon cancer cells
- Experiment Summary: Cytotoxicity against HT-29 cells
- Assay Setup: read-out: IC50, cytotoxicity toward HT-29 cells
Metric: IC50 (µM)
Hi! Could you send only the number? It should be in µM, unit omitted.

What value of IC50 has been reported for the following compound? COc1cc2c(O[C@@H]3OC[C@H](OC(C)=O)[C@H](OC(C)=O)[C@H]3OC(C)=O)c3c(c(-c4ccc5c(c4)OCO5)c2cc1OC)C(=O)OC3
0.11

Continuing:
Entry under review: COc1cc2c(O[C@@H]3OC[C@H](OC(C)=O)[C@H](OC(C)=O)[C@H]3O)c3c(c(-c4ccc5c(c4)OCO5)c2cc1OC)C(=O)OC3 . Reported IC50?
0.17
